All values here come from ChEMBL document CHEMBL1201862.

# System: COLO 205
# METHOD_DESCRIPTION: NCI tumour cell line growth inhibition, 48 h
Activity calls are given as the source filed them. Rule as the data show it: active = GI50 up to about 1.1 µM and inactive = higher.
Outcomes: true (1) = active, false (0) = inactive

O=C(CSC(=S)N1CCOCC1)Nc1nc2c(s1)CCCC2 ... false (0)
CCCNC(=S)N/C=C1/C(=O)Oc2ccccc2C1=O ... false (0)
N=C(N)N/N=C/c1c(-c2cccc([N+](=O)[O-])c2)nc2n1CCS2 ... false (0)
COc1cccc(/N=N/C(=NNC(=O)c2ccc(C)cc2)c2ccc(N(C)C)cc2)c1 ... false (0)
COC[C@@H](/N=C/C(C)(C)C)C(C)C ... false (0)
CC(=O)Nn1c(Cc2ccc(Cl)cc2)nn(C)c1=O ... false (0)
CCOC(=O)c1ccc(NC2Oc3cc4c(cc3C(c3cc(OC)c(OC)c(OC)c3)C2C)OCO4)cc1 (stereo not given) ... true (1)
COc1cccc(Nc2nc(NNC(=O)Cc3ccccc3)nc(NNC(=O)c3ccncc3)n2)c1 ... false (0)
COC(=O)C(NC(=O)C12CCC(C)(C(=O)O1)C2(C)C)c1cc(C(C)(C)C)c(O)c(C(C)(C)C)c1 (stereo not given) ... false (0)
CCCCCCCCCCCCC(SCCNC(=O)CCNC(=O)C(O)C(C)(C)COP(=O)(O)OP(=O)(O)OCC1OC(n2cnc3c(N)ncnc32)C(O)C1OP(=O)(O)O)C(=O)NCC(N)=O (stereo not given) ... false (0)
c1cncc(CC2(c3cc4ccccc4[nH]3)OCCO2)c1 ... false (0)
CCCCCC(/C=C/C1CCC(=O)C1CC#C[Si](C)(C)C)OCc1ccccc1 (stereo not given) ... false (0)
O=C1c2ccccc2N2OC3(N4CCCC4)CCCCC3C12c1ccccc1 (stereo not given) ... false (0)
c1ccc(NN/N=N/c2ccc(-c3nc4ccccc4[nH]3)cc2)cc1 ... false (0)
CC(Cn1c2c3ccccc3ccc2c2oc(=O)c3ccccc3c21)N(C)C (stereo not given) ... false (0)
COc1cc(/C=C/C(=O)OC[C@]23O[C@H]2[C@@H](OC2OC(C)C(O)C(O)C2O)C2C=CO[C@@H](OC4OC(CO)C(O)C(O)C4O)C23)ccc1O (stereo not given in full) ... false (0)
O=c1[nH]c(=O)c2c([nH]1)[nH]c1ccccc12 ... false (0)
CN(N)/N=N/c1[nH]cnc1C(N)=O ... false (0)
CCC(C)C(Nc1c2ccccc2nc2c(C(=O)NCCN(C)C)cccc12)C(=O)O (stereo not given) ... false (0)
COc1ccc(C(=O)NC2=C(Cl)C(=O)c3ccccc3C2=O)cc1 ... false (0)

====

Recorded GI50 values for a group of molecules are listed next.
# System: SW-620
# METHOD_DESCRIPTION: NCI tumour cell line growth inhibition, 48 h
Active and inactive are the calls of the source. No stated cut-off is given here; in the data, active = GI50 up to about 1.1 µM and inactive = higher.
PARAMETER: GI50

COc1c2c(c(CC=C(C)C)c3oc(=O)c(-c4ccc(O)cc4)c(O)c13)OC(C)(C)C=C2 [LONCHOCARPIC ACID] ... 44.1 µM (inactive)
O=C(NN1C(=O)CS(=O)(=O)C1c1ccc(Cl)c(Cl)c1)c1ccncc1 (centres undefined) ... > 100 µM (inactive)
O=C(CSc1nnc(Cc2ccccc2)o1)Nc1ccc(Cl)cc1[N+](=O)[O-] ... 25.1 µM (inactive)
Cc1c(CC/C(=N\Nc2ccc([N+](=O)[O-])cc2[N+](=O)[O-])c2ccccc2)c2ccccc2n1C ... > 100 µM (inactive)
O=C(/N=S(/NC(=O)c1ccccc1)C(Cl)(Cl)Cl)c1ccccc1 (centres undefined) ... 3.57 µM (inactive)
COC(=O)C(Cc1c[nH]c2ccccc12)NP(=O)(O)OCC1OC(n2ccc(N)nc2=O)C(O)C1O (centres undefined) ... > 100 µM (inactive)
C[C@H](c1ccccc1)n1c(N)c(-c2nc3ccccc3s2)c2ccc([N+](=O)[O-])cc2c1=O ... 4.14 µM (inactive)
O=C1CC(NC(=O)C(F)(F)F)c2c(Br)sc(N3CCNCC3)c21 (centres undefined) ... > 100 µM (inactive)
NC(CSS(=O)(=O)c1ccccc1)C(=O)O (centres undefined) ... > 10 µM (inactive)

====

# Tested on: SK-MEL-28
# METHOD_DESCRIPTION: NCI tumour cell line growth inhibition, 48 h
Calls of active or inactive are those of the source. No stated cut-off is given here; in the data, active = GI50 up to about 1.1 µM and inactive = higher.
PARAMETER: GI50

C[C@H](CS)C(=O)N1c2ccccc2C[C@H]1C(=O)O ... > 100 µM (inactive)
Cc1cc(Br)ccc1NC1=CC(=O)C(=O)c2ccccc21 ... 45.3 µM (inactive)
CCC1(O)C(=O)OCc2c1cc1n(c2=O)Cc2cc3c(N)cccc3nc2-1 (stereo not given) [RS-9-Aminocamptothecin] ... 0.188 µM (active)
COc1cc(CNC2=NCCC2)cc(OC)c1OC ... > 100 µM (inactive)
CCCCCC(/C=C/C1CCC(=O)C1CC#C[Si](C)(C)C)OCc1ccccc1 (stereo not given) ... 23 µM (inactive)
COc1cc(C2C(C(=O)O)=C(CO)Oc3cc4c(cc32)OCO4)cc(OC)c1O (stereo not given) ... > 100 µM (inactive)
CC(=O)NN(c1ccccc1)C1CCN(c2ccccc2)N1C(C)=O (stereo not given) ... > 10 µM (inactive)
Cc1ccc(S(=O)(=O)c2[nH]cc(/C(=C\C3CCCCC3)[N+](=O)[O-])c2C2CCCCC2)cc1 ... 0.802 µM (active)
O=c1cc(N2CCCC2)[nH]c(=O)n1-c1ccc(F)cc1 ... > 100 µM (inactive)
O=C(CCCCCNC(=O)c1ccc(Cl)cc1)NO ... 5.32 µM (inactive)

====

# System: ACHN
# METHOD_DESCRIPTION: NCI tumour cell line growth inhibition, 48 h
Activity calls are given as the source filed them. Rule as the data show it: active = GI50 up to about 1.1 µM and inactive = higher.
GI50 values by entry
PARAMETER: GI50

Cc1noc(NS(=O)(=O)c2ccc(NC(=O)c3ccc4[nH]c5ccccc5c(=O)c4c3)cc2)c1C ... 53.8 µM (inactive)
COc1ccc(/N=C2\C(=N/c3ccc(OC)cc3)N(c3ccccc3[N+](=O)[O-])C(=S)N2c2ccc(OC)cc2)cc1 ... > 100 µM (inactive)
CCOS(=O)(=O)c1ccc(-c2c3nc(c(-c4ccc(S(=O)(=O)OCC)cc4)c4ccc([nH]4)c(-c4ccc(S(=O)(=O)OCC)cc4)c4nc(c(-c5ccc(S(=O)(=O)OCC)cc5)c5ccc2[nH]5)C=C4)C=C3)cc1 ... > 31.6 µM (inactive)
O=C1Nc2ccccc2Cn2c1cc1oc(-c3ccccc3)cc12 ... 37.2 µM (inactive)
O=S(=O)(O)SC/C=C\CSS(=O)(=O)O ... > 100 µM (inactive)
O=C1C[C@@H]2C(COC(=O)c3ccccc3)N(OCc3ccccc3)C[C@@H]2O1 (stereo partly drawn) ... > 100 µM (inactive)
C[C@@H](c1ccccc1)N1CN(C(=O)OCc2ccccc2)C(C)(C)CC1=O ... > 100 µM (inactive)
C=CCNC(=O)/C(Cc1cc(Br)c(OC)c(Br)c1O)=N\O ... 13.4 µM (inactive)

====

# Test system: LXFL 529
# METHOD_DESCRIPTION: NCI tumour cell line growth inhibition, 48 h
Calls of active or inactive are those of the source. No stated cut-off is given here; in the data, active = GI50 up to about 1.1 µM and inactive = higher.
Below, each of the compounds is paired with its reported GI50 value.
PARAMETER: GI50

Nc1ncnc2c1ncn2CCCC(c1ccccc1)P(=O)(O)O (stereo not drawn) ... > 100 µM (inactive)
COC(=O)C1=C(c2cc(OC)c(OC)c(OC)c2)O[C@H](c2ccc3c(c2)OCO3)[C@H]1COC(C)=O ... 20.3 µM (inactive)
COC(OC)[C@@H](C)[C@H](O)[C@](C)(O)C1OC(C)(C)OC(C(C)C=C(C)C)C1C (stereo partly drawn) ... > 100 µM (inactive)
CCOC(=O)C(CCCNC(=O)OC(C)(C)C)N(Cc1ccc(OC)cc1OC)C(=O)CC(=O)CP(=O)(OCC)OCC (stereo not drawn) ... > 100 µM (inactive)
NCCSCC(N)C(=O)O (stereo not drawn) ... > 497 µM (inactive)
Cc1cc(Br)ccc1NC1=CC(=O)C(=O)c2ccccc21 ... 55.7 µM (inactive)
CSc1ccc2c(cc1=O)[C@@H](NC(=O)c1ccc(F)cc1)CCc1cc(O)c(O)c(O)c1-2 ... > 100 µM (inactive)
CC(=O)Nc1ccc(C2[C@H]3C(=O)N(c4ccc(Cc5ccc(N6C(=O)[C@@H]7ON(c8ccccc8)C(c8ccc(NC(C)=O)cc8)[C@@H]7C6=O)cc5)cc4)C(=O)[C@H]3ON2c2ccccc2)cc1 (stereo partly drawn) ... > 100 µM (inactive)

====

Measured GI50 of individual entries
# System: K562
# METHOD_DESCRIPTION: NCI tumour cell line growth inhibition, 48 h
The source made the active and inactive calls. Cut-off read from the data, not from the text of the source: active = GI50 up to about 1.1 µM and inactive = higher.
PARAMETER: GI50

c1ccc(CSC2(SCc3ccccc3)CCCC2)cc1 ... > 10 µM (inactive)
CC(C)(C)OC(=O)NCCC1CNc2ccccc21 (centres undefined) ... > 100 µM (inactive)
C=C[C@@H](C)[C@]1(C(=O)OC)CCCC12OCCO2 ... > 100 µM (inactive)
O=S(=O)(N1CCCCN(S(=O)(=O)C(F)(F)F)CCCN(S(=O)(=O)C(F)(F)F)CCCN(S(=O)(=O)C(F)(F)F)CCCCN(S(=O)(=O)C(F)(F)F)CCCN(S(=O)(=O)C(F)(F)F)CCC1)C(F)(F)F ... > 100 µM (inactive)
CC1CCCC(C(=O)CC2CC(=O)NC(=O)C2)C1=O (centres undefined) ... > 100 µM (inactive)
CC(=O)Oc1ccccc1C(=O)Nc1ncc([N+](=O)[O-])s1 [NITAZOXANIDE] ... 55.7 µM (inactive)
COc1ccc(N2CCN(Cc3c(C(C)=O)[n+]([O-])c4ccccc4[n+]3[O-])CC2)cc1 ... > 100 µM (inactive)
CC(C)CC(=O)NC(NC(C)C)(C(F)(F)F)C(F)(F)F ... > 100 µM (inactive)
C[C@H](c1ccccc1)n1c(N)c(-c2nc3ccccc3s2)c2ccc([N+](=O)[O-])cc2c1=O ... 1.23 µM (inactive)
